assay: stability to the enzyme dehydropeptidase from human kidneys
Assay type: in vitro ADME
condition-label: kidney dehydropeptidase, read-out: t1/2 (stability to dehydropeptidase) (converted)
test-readout: half-life (h)

> print(dat)
                            molecule.smiles  test.readout  measurement
1  C[C@@H](O)[C@H]1C(=O)N2C(C(=O)O)=C(CN)S[C@H]12     half-life         6.75

Data provenance is patent US4761408A.
